All values here come from patent US20250346668A1.

target: T1, human CD3e/g antigen (ACRO, catalog number CDG-H52W5) (human, UniProt P07766 23-126; P09693 23-116); test: SPR (Biacore 8K), antibody captured via anti-human Fc
T1 construct: Bought reagent used as the Biacore analyte; also called hCD3e/g
observed_property: kon
Give me the value, and tack the unit on after it.

{"columns": ["binder", "kon"],
 "data": [
  ["hAb008-22 (antibody, V domains shown, Humanized; constant regions not specified) VH: QVQLVQSGAEVKKPGASVKVSCKASGYTFTDYTVNWVRQAPGQRLEWIGYINPFNSYTKYNQKFKDRVTITADTSASTAYMELSSLRSEDTAVYYCANSVSTYWGQGTTVTVSS VL: DVVMTQSPLSLPVTLGQPASISCKSSQSLLDSDGKTYLNWLQQRPGQSPRRLIQLVSKLNSGVPDRFSGSGSGTDFTLKISRVEAEDVGVFYCWQGTHFPRTFGGGTKLEIK", "285000 M⁻¹ s⁻¹"],
  ["hAb001-17 (antibody, V domains shown, Humanized; constant regions not specified) VH: QVQLVQSGAEVKKPGASVKVSCKASGYSFTNYYMHWVRQAPGQRLEWMGWTYPGNNNIKYNEKFKGRVTITRDTSASTAYMELSSLRSEDTAVYYCARDGYGYYFFDYWGQGTLVTVSS VL: DIVMTQSPDSLAVSLGERATINCKSSQSLLNNRTRKNYLAWYQQKPGQPPKLLIYWASTRESGVPDRFSGSGSGTDFTLTISSLQAEDVAVYYCKQSYTLRTFGGGTKLEIK", "288000 M⁻¹ s⁻¹"]
]}

Attention now turns to another entry.
Reported kon of hAb008-24 (antibody, V domains shown, Humanized; constant regions not specified) VH: QVQLVQSGAEVKKPGASVKVSCKASGYTFTDYTVNWVRQAPGQRLEWIGYINPFNSYTKYNQKFKDRATITADTSASTAYMELSSLRSEDTAVYFCANSVSTYWGQGTTVTVSS VL: DVVMTQSPLSLPVTLGQPASISCKSSQSLLDSDGKTYLNWFQQRPGQSPRRLIYLVSKLNSGVPDRFSGSGSGTDFTLKISRVEAEDVGVYYCWQGTHFPRTFGGGTKLEIK : 125000 M⁻¹ s⁻¹
